Kindly state MIC for each of the entries shown.
- System: STAPHYLOCOCCUS EPIDERMIDIS 3519
- assay_summary: microbe, parasite or virus in culture
- Type: cell-based
- condition_details: S. epidermidis 3519, BHI agar, 35-37° C., 20 to 24 hours, read-out: MIC
Reply with just the number (in µg/mL).

Challenge: Fill blank: measured MIC of the molecule CC[C@H]1OC(=O)[C@H](C)[C@@H](O[C@H]2C[C@@](C)(OC)[C@@H](O)[C@H](C)O2)[C@H](C)[C@@H](O[C@@H]2O[C@H](C)C[C@H](N(C)C)[C@H]2O)[C@](C)(O)C[C@@H](C)[C@@H](N(C)C)[C@H](C)[C@@H](O)[C@@]1(O)CNC is ____.
Response given: 12.5

Challenge: // repeat for CC[C@H]1OC(=O)[C@H](C)[C@@H](O[C@H]2C[C@@](C)(OC)[C@@H](O)[C@H](C)O2)[C@H](C)[C@@H](O[C@@H]2O[C@H](C)C[C@H](N(C)C)[C@H]2O)[C@](C)(O)C[C@@H](C)[C@@H](N(C)C)[C@H](C)[C@@H](O)[C@@]1(O)CN(C)C and report
Response given: 3.1

====

# collection of MIC values tested on M[…] ATCC 9341
Report the value in µg/mL with no unit label.

Challenge: Can you share its MIC? I mean this molecule: CC[C@H]1OC(=O)[C@H](C)[C@@H](O[C@H]2C[C@@](C)(OC)[C@@H](O)[C@H](C)O2)[C@H](C)[C@@H](O[C@@H]2O[C@H](C)C[C@H](N(C)C)[C@H]2O)[C@](C)(O)C[C@@H](C)[C@@H](N(C)C)[C@H](C)[C@@H](O)[C@@]1(O)CN(C)Cc1ccccc1
Response given: 6.2

Challenge: And for CC[C@H]1OC(=O)[C@H](C)[C@@H](O[C@H]2C[C@@](C)(OC)[C@@H](O)[C@H](C)O2)[C@H](C)[C@@H](O[C@@H]2O[C@H](C)C[C@H](N(C)C)[C@H]2O)[C@](C)(O)C[C@@H](C)[C@@H](N)[C@H](C)[C@@H](O)[C@@]1(O)CN ?
Response given: 50

Challenge: Repeat for the following molecule: CC[C@H]1OC(=O)[C@H](C)[C@@H](O[C@H]2C[C@@](C)(OC)[C@@H](O)[C@H](C)O2)[C@H](C)[C@@H](O[C@@H]2O[C@H](C)C[C@H](N(C)C)[C@H]2O)[C@](C)(O)C[C@@H](C)[C@@H](N(C)C)[C@H](C)[C@@H](O)[C@@]12CO2
Response given: 0.1

====

Provide the recorded MIC for the entries that follow.
- System: ESCHERICHIA COLI H560
- assay_summary: In vitro antibacterial activity, agar dilution MIC
- Format: cell-based
- condition_details: E. coli H560, BHI agar, 35-37° C., 20 to 24 hours, read-out: MIC
Express your answer as a number followed by its unit.

Challenge: // MIC lookup, key: CC[C@H]1OC(=O)[C@H](C)[C@@H](O[C@H]2C[C@@](C)(OC)[C@@H](O)[C@H](C)O2)[C@H](C)[C@@H](O[C@@H]2O[C@H](C)C[C@H](N(C)C)[C@H]2O)[C@](C)(O)C[C@@H](C)[C@@H](N(C)C)[C@H](C)[C@@H](O)[C@@]1(O)CO [Compound 10]
Response given: 100 µg/mL

Challenge: Now consider CC[C@H]1OC(=O)[C@H](C)[C@@H](O[C@H]2C[C@@](C)(OC)[C@@H](O)[C@H](C)O2)[C@H](C)[C@@H](O[C@@H]2O[C@H](C)C[C@H](N(C)C)[C@H]2O)[C@](C)(O)C[C@@H](C)[C@@H](N(C)C)[C@H](C)[C@@H](O)[C@@]1(O)CNC [Compound 17] .
Response given: 12.5 µg/mL
